Data credit: PubChem BioAssay (NCI)

Measured growth inhibition accompanies every entry in the list below.
test: NCI Yeast Anticancer Drug Screen. Data for the sgs1 mgt1 strain (AID 161);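 also: 0% = growth of cultures given vehicle only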; conditions: S. cerevisiae sgs1 mgt1 strain, at 50.0 µM, stronger effect = higher value
About 79,000 compounds went through this panel and 15% of them were active in at least one assay; those are over-represented in the sample as a whole.
Write down the numeric answer in % and omit the unit.

1) O=C(O)c1ccc(OCC(=O)c2ccccc2)cc1 :: -5.6
2) CC1(C)C(=O)NC(=O)N1CO :: -5.45
3) COC(=O)C[C@H]1CCC2(OCCO2)[C@]1(C)C(=O)OC :: -11.2
4) COc1ccc(CC(N)C(=O)N(C)C2C(CO)OC(n3cnc4c(N(C)C)ncnc43)C2O)cc1 (stereo unspecified) :: -8.7
5) O=c1c2cc(Cl)ccc2on1CN1CCOCC1 :: 17
6) CSc1nc2c([nH]1)c(=O)n(C)c(=O)n2C :: 8.4
7) CCCCn1c(-c2ccccc2)cs/c1=N\NC(=O)Cn1c(C)nc2ccccc21 :: -8.4
8) O=C(Nc1ccccc1)c1cccn1-c1ccccc1 :: 12.1
9) CCOc1ccccc1/C=C1\NC(=O)NC1=O :: -35
10) CCCCCCCCCCCCCC(=O)OCC1OC(n2cc(F)c(=O)[nH]c2=O)C(N)C(OC(=O)CCCCCCCCCCCCC)C1O (stereo unspecified) :: 22.5

Query :: Need growth inhibition of "Nc1cccc(/C=C/c2ccc([N+](=O)[O-])cc2)c1" , thanks.
Result :: 54.7

----------
experiment: NCI Yeast Anticancer Drug Screen. Data for the mlh1 rad18 strain (AID 175); conditions: S. cerevisiae mlh1 rad18 strain growth inhibition; at 50.0 µM
Compounds without any hit were thinned out: in the full panel of roughly 79,000, 15% have a hit. Active and inactive are the calls of the source. No stated cut-off is given here; in the data, active means growth inhibition above about 70%; inactive means the rest.
One label from this list, please: T = active, F = inactive

Query :: What did the test return for "Cc1ccc2sc3nc4ccccc4nc3c2c1" ?
Result :: F

Query :: Query: recorded result category for "O=C1C2=C(CCC2)C(=O)N1c1ccc(N2C(=O)C3=C(CCC3)C2=O)cc1" in this test
Result :: F

----------
experiment: NCI Yeast Anticancer Drug Screen. Data for the rad50 strain (AID 155);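 also: 0% = growth of vehicle-only cultures of the same strain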; conditions: S. cerevisiae rad50 strain growth inhibition; at 50.0 µM; stronger effect = higher value
About 79,000 compounds went through this panel and 15% of them were active in at least one assay; those are over-represented in the sample as a whole.
Readout type: growth inhibition (%)
Just the number please, in %, no unit attached.

Below, each entry is followed by its recorded growth inhibition result.
1) C/C=C\CCCCCCCCCCCCCCCC :: -1.15
2) O=C1NCC(C2CC2)(C2CC2)O1 :: 8.85
3) Cc1cc(Cl)ccc1NC(=O)NC(C)(C)COC(=O)Nc1cccc(Cl)c1 :: 26
4) CCOC(=O)NNC(=O)c1ccccc1N(C)C :: -12.4
5) BrCCCCOc1ccccc1 :: 3.5
6) CCNc1ncnc2sc(SCc3ccccc3)nc12 :: -39.3
7) C=CS(=O)(=O)CCCCCCCCCCCCCCCCCC :: -2.35
8) O=C(CCC(=O)Nc1ccc(Cl)c(Cl)c1)CC(=O)c1ccc2ccccc2c1 :: 22

Note: attention shifts to another entry.
Query :: Report growth inhibition for "O=C(Nc1ccccc1)c1cccn1-c1ccccc1" please.
Result :: 2.7

----------
experiment: NCI Yeast Anticancer Drug Screen. Data for the mec2-1 strain (AID 157); details: S. cerevisiae mec2-1 strain, at 50.0 µM, stronger effect = higher value
This is part of a sample that, as a whole, favours compounds with a hit. Of some 79,000 tested, about 15% had one in any assay.
# growth inhibition annotations
Give just the numeric value; % need not be written.

Query :: Query: growth inhibition; subject: "CC1=C(C(=O)NCCc2ccccc2)CC(C(=O)NCCc2ccccc2)=C(C)N1"
Result :: 6.4

Query :: Fill in the blank: the reported growth inhibition of COC(=O)C(C)(Cc1ccc2c(c1)nnn2C(C)=O)NC(C)=O (stereo unspecified) is ____.
Result :: -1.25

Query :: Looking for the measured growth inhibition of O=S(c1ccccc1)[C@H]1CC2C3CC4C2C4C31 (stereo partly specified) , can you help?
Result :: 4.7

Query :: Item "CCOC(=O)c1cnc(SC)nc1Nc1cccc(Cl)c1Cl" has what recorded growth inhibition?
Result :: 99

Query :: Could you share which growth inhibition value was measured for CC(O)/C=C/C(CCC(C)CO)C(C)C (stereo unspecified) ?
Result :: -27.6

Query :: Please give the measured growth inhibition for this compound: "CCCCCCCCCCOC(=O)c1ccccc1O"
Result :: -7.15

Query :: I am curious: what growth inhibition value has been reported for "O=C(OCC(F)(F)C(F)(F)C(F)(F)C(F)(F)C(F)(F)C(F)F)OCC(F)(F)C(F)(F)C(F)(F)C(F)(F)C(F)(F)C(F)F" ?
Result :: 9.05

Query :: Need growth inhibition of "O=c1[nH][nH]c(=O)c2c1ncn2Cc1ccccc1" , thanks.
Result :: -17

Query :: growth inhibition for "Nc1ccc2c(c1)C(=O)c1c(F)c(F)c(F)c(F)c1-2" ?
Result :: -0.9

----------
experiment: NCI Yeast Anticancer Drug Screen. Data for the cln2 rad14 strain (AID 165);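 also: 0% = growth equal to vehicle treated cultures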; details: S. cerevisiae cln2 rad14 strain, at 50.0 µM, stronger effect = higher value
About 79,000 compounds went through this panel and 15% of them were active in at least one assay; those are over-represented in the sample as a whole.
Readout type: growth inhibition (%)
Number only, in %; omit the unit.

# count of solved cases: 2
1. Nc1nc(C2CCCCC2)cs1 :: 16.1
2. CC1(C)OC2COC3(COC(C)(C)O3)C(O)C2O1 (stereo not drawn) :: -3.7

From here, focus on the item given below.
Query :: # input compound: "COc1ccccc1C(O)(c1ccccc1OC)C1(O)CCCCC1" ; wanted: its growth inhibition
Result :: 13.8

----------
The following compounds are listed with their measured growth inhibition values.
Assay: NCI Yeast Anticancer Drug Screen. Data for the mlh1 rad18 strain (AID 175)
Settings: S. cerevisiae mlh1 rad18 strain growth inhibition; at 50.0 µM; stronger effect = higher value
Protocol: Growth inhibition of yeast strains with defined genetic alterations is measured as a screen for potential anti-cancer activity. Selected strains with alterations in DNA damage repair or cell cycle control were exposed to compounds and growth inhibition was measured relative to vehicle treated controls. The strain used in this assay is mlh1 rad18
About 79,000 compounds went through this panel and 15% of them were active in at least one assay; those are over-represented in the sample as a whole.
Dear colleague, please return just the value in %, with no unit written.

Example cases with answers are listed next.
1) COc1ccc(/C=C/C(=O)OCCC(C)C)cc1 :: -16.7
2) Cc1ccc(C2(C#N)CCCC2)cc1 :: 4.7

Query :: Entry under review: "Cc1cc(C)cc(O)c1" . Reported growth inhibition?
Result :: -1.7

Query :: Which growth inhibition is reported for this compound? "O=S(=O)(O)c1cc2c3ccccc3ccc2c2ccccc12"
Result :: 21.8

Query :: Give the measured growth inhibition of Cc1ccc(O)c(C2CC(C#N)CCN2C)c1 (stereo not drawn) .
Result :: -7.3

----------
experiment: NCI Yeast Anticancer Drug Screen. Data for the mlh1 rad18 strain (AID 175); conditions: S. cerevisiae mlh1 rad18 strain growth inhibition; at 50.0 µM; stronger effect = higher value
Compounds without any hit were thinned out: in the full panel of roughly 79,000, 15% have a hit.
Readout type: growth inhibition (%)
# output: bare number, implied unit %

Some solved cases for reference:
1) CCCCCCCCCCCC(=O)N(CCOC(=O)c1ccccc1)CCc1ccccc1 :: 24.5
2) O=[N+]([O-])c1ccc(CCO)cc1 :: -4.6
3) CC(=O)Nc1ccc2c([N+](=O)[O-])cccc2c1-c1c(NC(C)=O)ccc2c([N+](=O)[O-])cccc12 :: 30.4
4) CNNCCCC(=O)NC(C)C :: 7.85
5) Cc1ccc(O)c(C(C)C)c1 :: -8.6
6) CCN(CC)c1nc(C(N)=O)c([N+](=O)[O-])c(N(CC)CC)n1 :: -0.5
7) COc1cccc(C=Nc2cc(C)ccn2)c1O.COc1cccc(C=Nc2cc(C)ccn2)c1O.[Cu] :: 38.6

Proceeding to the next compound to report its growth inhibition.
Query :: Need growth inhibition of O=C(CC(C(=O)c1cccs1)c1ccsc1)c1cccs1 (stereo not drawn) , thanks.
Result :: -38.7

----------
assay: NCI Yeast Anticancer Drug Screen. Data for the bub3 strain (AID 167); details: S. cerevisiae bub3 mutant strain, at 50.0 µM, stronger effect = higher value
About 79,000 compounds went through this panel and 15% of them were active in at least one assay; those are over-represented in the sample as a whole.
Readout type: growth inhibition (%)
Write down the numeric answer in % and omit the unit.

Take a look at these entries with their results.
1. CCC(COCC(CC)C(=O)O)C(=O)O (centres undefined) :: 12.7
2. CC1=CC(=O)C(C(C)C)=CC1=Nc1ccc(N(C)C)cc1 :: 42.4
3. N=c1ccn(CC(O)COc2ccccc2)cc1 (centres undefined) :: 2.75

Now take the following compound into account.
Query :: Which growth inhibition is reported for this compound? "O=C(O)/C=C/SCc1ccccc1"
Result :: 1.4
